Test: NCI Yeast Anticancer Drug Screen. Data for the sgs1 mgt1 strain (AID 161)
Settings: S. cerevisiae sgs1 mgt1 strain, at 5.0 µM (retest, dose inferred, filed as 0.5)
This is part of a sample that, as a whole, favours compounds with a hit. Of some 79,000 tested, about 15% had one in any assay. Calls of active or inactive are those of the source. No stated cut-off is given here; in the data, active means growth inhibition above about 70%; inactive means the rest.
Can you answer with just one of these options? active, inactive

These solved cases illustrate the format of a correct answer.
COMPOUND	GROUP LABEL
CCN1CCC(O)(c2ccc(Cl)c(Cl)c2)C(C(=O)c2ccc(Cl)c(Cl)c2)C1 (stereo not given)	active
C[C@]12Cc3conc3C(O)=C1CC[C@@H]1C2CC[C@@]2(C)C1CC[C@@H]2O (stereo not given in full)	inactive
COc1cc2ccccc2c2cc([N+](=O)[O-])oc12	active
Clc1ccc(-c2cc(=[N+]3CC[N+](=c4cc(-c5ccc(Cl)cc5)ss4)CC3)ss2)cc1	inactive
CC(=O)OC1CCC2(C)C3CCC4(C)C(OC(=O)c5ccccc5)CCC4C3CC(Br)C2(O)C1 (stereo not given)	inactive

Challenge: Called result for `COc1cc(C=Nc2ccc(-c3csc(COc4ccccc4)n3)cc2)ccc1N(CCCl)CCCl`
Response given: inactive
